Listed compounds paired with reported IC50
Biological target: NS3-NS4 protease (Hepatitis C virus genotype 1a, UniProt P27958)
Construct: Recombinant E. coli or Baculovirus full-length NS3 was diluted to 3.33 μM with assay buffer; made in house; host or cells: E. coli or baculovirus (BV) system
Sequence (P27958 1027-1657): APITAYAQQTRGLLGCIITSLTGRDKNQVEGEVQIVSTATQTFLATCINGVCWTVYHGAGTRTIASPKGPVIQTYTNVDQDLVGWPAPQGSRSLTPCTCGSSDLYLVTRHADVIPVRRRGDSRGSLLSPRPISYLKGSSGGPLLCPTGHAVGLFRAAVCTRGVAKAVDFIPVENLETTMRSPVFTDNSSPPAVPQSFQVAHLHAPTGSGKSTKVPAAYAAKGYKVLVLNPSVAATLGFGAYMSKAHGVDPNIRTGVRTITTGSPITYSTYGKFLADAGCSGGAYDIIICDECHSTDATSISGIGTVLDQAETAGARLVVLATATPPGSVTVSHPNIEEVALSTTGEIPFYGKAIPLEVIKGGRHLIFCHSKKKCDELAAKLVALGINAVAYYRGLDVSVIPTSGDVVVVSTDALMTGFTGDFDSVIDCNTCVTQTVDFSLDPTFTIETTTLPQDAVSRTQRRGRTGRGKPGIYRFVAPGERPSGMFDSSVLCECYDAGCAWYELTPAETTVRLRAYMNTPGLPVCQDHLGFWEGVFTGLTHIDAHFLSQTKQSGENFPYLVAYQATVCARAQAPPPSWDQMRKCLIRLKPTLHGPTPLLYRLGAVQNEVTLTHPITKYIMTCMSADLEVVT
Test: NS3-NS4 protease assay / NS3 inhibition assay, Section D
Assay type: biochemical

Recorded IC50, per entry:
Form field, IC50 with NS3-NS4 protease (Hepatitis C virus genotype 1a, UniProt P27958), item `CC(C)(C)OC(=O)N[C@H]1CCCCC/C=C\[C@@H]2C[C@@]2(C(=O)NS(=O)(=O)C2CC2)NC(=O)[C@@H]2C[C@@H](NC(=O)c3ccc(-n4ccnc4)cc3)CN2C1=O` : < 100 nM

# `CC(C)(C)OC(=O)N[C@H]1CCCCC/C=C\[C@@H]2C[C@@]2(C(=O)NS(=O)(=O)C2CC2)NC(=O)[C@@H]2C[C@@H](NC(=O)c3cc4cc(Cl)ccc4[nH]3)CN2C1=O` with NS3-NS4 protease (Hepatitis C virus genotype 1a, UniProt P27958): IC50 is < 100 nM

More entries:
Bench note, NS3-NS4 protease (Hepatitis C virus genotype 1a, UniProt P27958): entry `CC(C)(C)OC(=O)N[C@H]1CCCCC/C=C\[C@@H]2C[C@@]2(C(=O)O)NC(=O)[C@@H]2C[C@@H](NC(=O)c3ccc4ccccc4c3)CN2C1=O` , its IC50 = < 1000 nM

* * *

pIC50 by entry:
Molecular target: NS3-NS4 protease (Hepatitis C virus genotype 1a)
Construct: Recombinant E. coli or Baculovirus full-length NS3 was diluted to 3.33 μM with assay buffer; made in house; host or cells: E. coli or baculovirus (BV) system
Assay: NS3-NS4 protease assay / NS3 inhibition assay, Section D
Format: biochemical
pIC50: −log10 of the molar value.

Examples from the recorded data:
// pIC50 value for CC(C)(C)OC(=O)N[C@H]1CCCCC/C=C\[C@@H]2C[C@@]2(C(=O)NS(=O)(=O)C2CC2)NC(=O)[C@@H]2C[C@@H](NC(=O)c3ccc4ccccc4c3)CN2C1=O [Example 27] : > 7.00

// field: pIC50; key: CC(C)(C)OC(=O)N[C@H]1CCCCC/C=C\[C@@H]2C[C@@]2(C(=O)NS(=O)(=O)C2CC2)NC(=O)[C@@H]2C[C@@H](NC(=O)c3csc(-c4ccccc4)n3)CN2C1=O [Example 24] ; value = > 7.00

New cases:
Input CC(C)(C)OC(=O)N[C@H]1CCCCC/C=C\[C@@H]2C[C@@]2(C(=O)NS(=O)(=O)C2CC2)NC(=O)[C@@H]2C[C@@H](NC(=O)c3csc(-c4ccc(Cl)cc4)n3)CN2C1=O [Example 26] . Output pIC50: > 7.00

Consider COc1ccc(C(=O)N[C@@H]2C[C@H]3C(=O)N[C@]4(C(=O)NS(=O)(=O)C5CC5)C[C@H]4/C=C\CCCCC[C@H](NC(=O)OC4CCCC4)C(=O)N3C2)cc1C(F)(F)F [Example 57] . Its measured pIC50 is > 7.00

The reported value for CC(C)(C)OC(=O)N[C@H]1CCCCC/C=C\[C@@H]2C[C@@]2(C(=O)NS(=O)(=O)C2CC2)NC(=O)[C@@H]2C[C@@H](NC(=O)c3ccc4cc[nH]c4c3)CN2C1=O [Example 38] in terms of pIC50 is > 7.00

So, CC(C)(C)OC(=O)N[C@H]1CCCCC/C=C\[C@@H]2C[C@@]2(C(=O)NS(=O)(=O)C2CC2)NC(=O)[C@@H]2C[C@@H](NC(=O)c3nc4ccccc4[nH]3)CN2C1=O [Example 47] ? Its pIC50 was > 7.00

Field pIC50 (entry COc1ccc(C(=O)N[C@@H]2C[C@H]3C(=O)N[C@]4(C(=O)O)C[C@H]4/C=C\CCCCC[C@H](NC(=O)OC(C)(C)C)C(=O)N3C2)cc1C(F)(F)F [Example 69] ) reads > 5.00

The compound CC(C)(C)NC(=O)N[C@H]1CCCCC/C=C\[C@@H]2C[C@@]2(C(=O)NS(=O)(=O)C2CC2)NC(=O)[C@@H]2C[C@@H](NC(=O)c3sc4ccccc4c3Cl)CN2C1=O [Example 49] showed pIC50 equal to > 7.00

CC(C)(C)OC(=O)N[C@H]1CCCCC/C=C\[C@@H]2C[C@@]2(C(=O)NS(=O)(=O)C2CC2)NC(=O)[C@@H]2C[C@@H](NC(=O)c3ccc(C(N)=O)cc3)CN2C1=O [Example 18] has a reported pIC50 of > 7.00

// sample CC(C)(C)OC(=O)N[C@H]1CCCCC/C=C\[C@@H]2C[C@@]2(C(=O)NS(=O)(=O)C2CC2)NC(=O)[C@@H]2C[C@@H](NC(=O)c3sc4cc(F)ccc4c3Cl)CN2C1=O [Example 44] , its pIC50 was > 7.00

* * *

Parameter pIC50: see the listing below.
Target: NS3-NS4 protease (Hepatitis C virus genotype 1a, UniProt P27958)
Construct: Recombinant E. coli or Baculovirus full-length NS3 was diluted to 3.33 μM with assay buffer; made in house; host or cells: E. coli or baculovirus (BV) system
Assay: NS3-NS4 protease assay / NS3 inhibition assay, Section D
Type: biochemical
pIC50: −log10 of the molar value.

Lab note: CC(C)(C)OC(=O)N[C@H]1CCCCC/C=C\[C@@H]2C[C@@]2(C(=O)NS(=O)(=O)C2CC2)NC(=O)[C@@H]2C[C@@H](NC(=O)c3ccccc3)CN2C1=O [Example 2] gave pIC50 of > 7.00

The reported pIC50 of the compound CC(C)(C)NC(=O)N[C@H]1CCCCC/C=C\[C@@H]2C[C@@]2(C(=O)NS(=O)(=O)C2CC2)NC(=O)[C@@H]2C[C@@H](NC(=O)c3sc4cc(F)ccc4c3Cl)CN2C1=O [Example 55] was > 7.00

Entry CC(CC(=O)N[C@H]1CCCCC/C=C\[C@@H]2C[C@@]2(C(=O)NS(=O)(=O)C2CC2)NC(=O)[C@@H]2C[C@@H](NC(=O)c3sc4ccccc4c3Cl)CN2C1=O)C(F)(F)F (some centres unmarked) [Example 53] ; pIC50 = > 7.00

The compound listed as CC(C)Nc1nc(C(=O)N[C@@H]2C[C@H]3C(=O)N[C@]4(C(=O)NS(=O)(=O)C5CC5)C[C@H]4/C=C\CCCCC[C@H](NC(=O)OC(C)(C)C)C(=O)N3C2)cs1 [Example 12] has a reported pIC50 of > 7.00

For this compound ( CC(C)(C)OC(=O)N[C@H]1CCCCC/C=C\[C@@H]2C[C@@]2(C(=O)NS(=O)(=O)C2CC2)NC(=O)[C@@H]2C[C@@H](NC(=O)c3cc4cc(F)ccc4[nH]3)CN2C1=O [Example 34] ), measured pIC50 is > 7.00

The compound listed as CC(C)(C)OC(=O)N[C@H]1CCCCC/C=C\[C@@H]2C[C@@]2(C(=O)NS(=O)(=O)C2CC2)NC(=O)[C@@H]2C[C@@H](NC(=O)c3c(Cl)cc(Cl)cc3Cl)CN2C1=O [Example 5] shows pIC50 equal to > 7.00

Continuing:
For CC(C)(C)OC(=O)N[C@H]1CCCCC/C=C\[C@@H]2C[C@@]2(C(=O)NS(=O)(=O)C2CC2)NC(=O)[C@@H]2C[C@@H](NC(=O)c3ccc(-c4ccccc4)cc3)CN2C1=O [Example 19] the compound record lists pIC50 as > 7.00

Reported pIC50 of CC(C)(C)OC(=O)N[C@H]1CCCCC/C=C\[C@@H]2C[C@@]2(C(=O)NS(=O)(=O)C2CC2)NC(=O)[C@@H]2C[C@@H](NC(=O)c3ccc4ncccc4c3)CN2C1=O [Example 28] : > 7.00

Kindly note the recorded pIC50 for CC(C)(C)OC(=O)N[C@H]1CCCCC/C=C\[C@@H]2C[C@@]2(C(=O)NS(=O)(=O)C2CC2)NC(=O)[C@@H]2C[C@@H](NC(=O)c3ccc(Cl)cc3)CN2C1=O [Example 4] , which is > 7.00

The compound listed as CC(C)(C)OC(=O)N[C@H]1CCCCC/C=C\[C@@H]2C[C@@]2(C(=O)NS(=O)(=O)C2CC2)NC(=O)[C@@H]2C[C@@H](NC(=O)c3ccc(Cl)c(Cl)c3)CN2C1=O [Example 16] has a reported pIC50 of > 7.00

Reported pIC50 ( CC(C)(C)OC(=O)N[C@H]1CCCCC/C=C\[C@@H]2C[C@@]2(C(=O)O)NC(=O)[C@@H]2C[C@@H](NC(=O)c3sc4ccccc4c3Cl)CN2C1=O [Example 64] ) = > 6.00

Recorded pIC50 (compound O=C(CCC(F)(F)F)N[C@H]1CCCCC/C=C\[C@@H]2C[C@@]2(C(=O)NS(=O)(=O)C2CC2)NC(=O)[C@@H]2C[C@@H](NC(=O)c3sc4ccccc4c3Cl)CN2C1=O [Example 50] ): > 7.00

Sample CC(C)(C)OC(=O)N[C@H]1CCCCC/C=C\[C@@H]2C[C@@]2(C(=O)O)NC(=O)[C@@H]2C[C@@H](NC(=O)c3cc4ccccc4[nH]3)CN2C1=O [Example 63] ; pIC50 observed: > 6.00

Field pIC50 (entry CC(C)(C)OC(=O)N[C@H]1CCCCC/C=C\[C@@H]2C[C@@]2(C(=O)NS(=O)(=O)C2CC2)NC(=O)[C@@H]2C[C@@H](NC(=O)c3sc4ccccc4c3Cl)CN2C1=O [Example 1] ) reads > 7.00

// COc1cccc2cc(C(=O)N[C@@H]3C[C@H]4C(=O)N[C@]5(C(=O)NS(=O)(=O)C6CC6)C[C@H]5/C=C\CCCCC[C@H](NC(=O)OC(C)(C)C)C(=O)N4C3)oc12 [Example 42] : pIC50 value = > 7.00
